Values were extracted from patent US20260374820.

Form field: pKd (one value per entry).
- assay_system: T1, human MuSK (human, UniProt O15146)
- T1 chain: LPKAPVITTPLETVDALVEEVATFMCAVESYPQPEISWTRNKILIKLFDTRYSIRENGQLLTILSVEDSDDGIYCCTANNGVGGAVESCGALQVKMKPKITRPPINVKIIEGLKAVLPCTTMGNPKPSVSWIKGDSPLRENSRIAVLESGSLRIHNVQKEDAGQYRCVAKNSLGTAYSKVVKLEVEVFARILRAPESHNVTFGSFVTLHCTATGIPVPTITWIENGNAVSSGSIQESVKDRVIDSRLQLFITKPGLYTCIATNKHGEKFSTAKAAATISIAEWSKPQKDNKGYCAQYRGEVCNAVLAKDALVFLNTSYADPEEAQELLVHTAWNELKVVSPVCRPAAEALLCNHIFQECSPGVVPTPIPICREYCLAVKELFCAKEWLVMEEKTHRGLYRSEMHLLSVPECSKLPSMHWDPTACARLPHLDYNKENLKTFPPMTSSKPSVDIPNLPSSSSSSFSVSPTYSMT
- test_summary: SPR
Bridges are numbered along the chain shown (N, C = ends). Where no end group is shown, it is not given here.
Units for pKd: none; it is -log10 of a concentration expressed in mol/L.

binder	reported_endpoint	recorded_number
{CH2CO}-YFPTNVVSLLKSC (thioether N-13 (inferred); not fully specified (C-terminus)) [MuSK4]	pKd	6.60
YLPEFSWPESFVLFLRQRQRQLGRGAE (also: name suffix Ac, meaning not given here) [MuSK1Ac]	pKd	8.80
{CH2CO}-YPSYHTNVVASLKRC (thioether N-15 (inferred); not fully specified (C-terminus)) [MuSK7]	pKd	6.80

Output measured pKd for this item: YLPEFSWPESFVLFLRQRQRQLGRGAE (not fully specified (bridges); also: thioether macrocycle stated, places not given here) [MuSK1]
8.66
